- Study System: T1, recombinant mouse VISTA (His-tagged) (mouse, UniProt Q9D659 33-191)
- T1 construct: also called murine VISTA; mVISTA
- T1 sequence (looked up): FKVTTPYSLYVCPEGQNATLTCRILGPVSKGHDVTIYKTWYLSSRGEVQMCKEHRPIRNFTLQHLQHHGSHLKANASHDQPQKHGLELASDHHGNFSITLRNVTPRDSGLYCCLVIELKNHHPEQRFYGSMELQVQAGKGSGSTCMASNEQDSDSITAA
- Run Description: BLI (Octet), 1:1 global fit, His-tagged mouse VISTA captured
Below, each of the binders is paired with its reported pKd value.
Here pKd is given on a logarithmic scale as minus log10 of the concentration in mol/L.

See these solved cases before continuing.
Binder	pKd
anti-VISTA clone V4-C9 IgG1 (antibody, V domains shown) VH: QVQLQESGPGLVKPSDTLSLTCTVSGYSITSDYAWNWIRQTPGKGLEWIGYITYSGYVSYNPSLRSRVTISRDTSKNQFSLKLSSVTAADTAVYSCARALYYPWYFDVWGTGTTVTVSS VL: EIVLTQSPATLSLSPGERATLSCRASSSVGYIHWYQQKPGQAPRPLIYATSNRATGIPARFSGSGSGTDNTLTISSLEPEDSAVYYCQQWSSYPPITFGGGTKLEVKR	8.37
anti-VISTA clone V4-C1 IgG1 (antibody, V domains shown) VH: QVQLQESGPGLVKPSDTLSLTCTVSGYSITSDYAWNWIRQTPGKGLEWIGYITYSGYISYNPSLRSRVTISRDTSKNQFSLKLSSVTAADTAVYSCARALYYPWYFDVWGTGTTVTVSS VL: EIVITQSPATLSLSPGERATLSCRASSSVGYIHWYQQKPGQAPRPLIYATSNRATGIPARFSGSGSGTDNTLTISSLEPEDSAVYYCQQWSSYPPITFGGGTKLEVKR	7.18
anti-VISTA clone V4-C28 IgG1 (antibody, V domains shown) VH: QVQLQESGPGLVKPSDTLSLTCTVSGYSITSDYTWNWIRQTPGKGLEWIGHITYSGSVSYNPSLRSRVTISRDTSKNQFSLKLSSVTAADTATYSCARALYYPWYFDVWGTGTTVTVSS VL: EIVLTQSPATLSLSPGERATLSCRASSSVGYIHWYQQKPGQAPRPLIYATSYRATGIPARFSGSGSGTDNTLTISSLEPEDSAVYYCQQWSSYPPITFGGGTKLEVKR	9.31

As a next step, examine the binder that follows.
Q) pKd lookup needed for anti-VISTA clone V4-C27 IgG1 (antibody, V domains shown) VH: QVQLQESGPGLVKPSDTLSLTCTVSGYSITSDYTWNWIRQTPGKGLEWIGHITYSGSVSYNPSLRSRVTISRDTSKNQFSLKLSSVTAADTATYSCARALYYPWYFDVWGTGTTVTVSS VL: EIVLTQSPATLSLSPGERATLSCRASSSVGYIHWYQQKPGQAPRPLIYATYNRATGIPARFSGSGSGTDNTLTISSLEPEDSAVYYCQQWSSYPPITFGGGTKLEVKR , thanks.
A) 9.86
